assay: NCI Yeast Anticancer Drug Screen. Data for the cln2 rad14 strain (AID 165);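 also: 0% = growth equal to vehicle treated cultures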; conditions: S. cerevisiae cln2 rad14 strain, at 50.0 µM (retest, dose inferred, filed as 5.0), stronger effect = higher value
Compounds without any hit were thinned out: in the full panel of roughly 79,000, 15% have a hit.
Would you mind telling me the reported growth inhibition of each entry?
Give bare numbers, in %.

- O=[N+]([O-])/C(C(Cl)=C(Cl)Cl)=C(/Cl)SCc1ccccc1: 99
- CC1SC2(C(=O)Nc3ccc(Br)cc32)N(c2ccc(Cl)cc2)C1=O (configuration not stated): 95
- N#CSc1ccc(O)c2ccccc12: 98
- CCCCCCCNC1CCCc2cc(OC)ccc21 (configuration not stated): 54
- CC(C)(C)c1ccc2c(c1)CNCCNCc1cc(C(C)(C)C)ccc1OCC1(CO2)COc2ccc(C(C)(C)C)cc2CNCCNCc2cc(C(C)(C)C)ccc2OC1: 92

Field: growth inhibition. Fill in for each record below.
1. CCC(CO)Nc1nc2cc(Br)ccc2c2ccc(Br)cc12 (configuration not stated)
2. CCOC(=O)C(Cc1cc(I)c(Oc2ccc(OC)cc2)c(I)c1)NC(C)=O (configuration not stated)
3. CC(C)(C)C(=O)CC(Cc1nccc2ccccc12)c1ccco1 (configuration not stated)
4. Cc1[nH]nc(C(=O)N/N=C/c2ccccc2Cl)c1N=NN(C)C
5. C=C1C[C@H]2C=Nc3cc(OCCCOc4cc5c(cc4OC)C(=O)N4CC(=C)C[C@H]4C=N5)c(OC)cc3C(=O)N2C1
6. CSC(=S)CC(O)[C@@H]1CC2c3ccccc3C1c1ccccc12 (some centres not stated)

1: 93; 2: 95; 3: 94; 4: 93; 5: 97; 6: 92

Item: CC(=O)N1C(c2[nH]c3ccccc3c2Cc2ccccc2)CCN1c1ccccc1 (configuration not stated) | growth inhibition: 96

----------
Would you mind telling me the reported growth inhibition of each entry?
test: NCI Yeast Anticancer Drug Screen. Data for the mlh1 rad18 strain (AID 175); conditions: S. cerevisiae mlh1 rad18 strain growth inhibition; at 5.0 µM (retest, dose inferred, filed as 0.5); stronger effect = higher value
About 79,000 compounds went through this panel and 15% of them were active in at least one assay; those are over-represented in the sample as a whole.
One number for each entry, in %.

Field: growth inhibition. Fill in for each record below.
1. COC(=O)c1ccc(C)cc1C1CN=NC12Cc1cccc(C)c1C2=O (stereo not given)
2. CC1C2CC(C(S(=O)(=O)N3CCOCC3)/C2=N\O)C1(C)C (stereo not given)
3. CC12CCC(c3sc(N)c(C#N)c31)C2(C)C (stereo not given)

-1
16
-36

Field: growth inhibition. Fill in for each record below.
1. CCCCCCCCCCCCCCN1CCSCC1
2. c1ccc([P+](c2ccccc2)(c2ccccc2)C2c3ccccc3-c3ccccc32)cc1

[5, 69]

----------
assay: NCI Yeast Anticancer Drug Screen. Data for the mlh1 rad18 strain (AID 175); conditions: S. cerevisiae mlh1 rad18 strain growth inhibition; at 5.0 µM (retest, dose inferred, filed as 0.5)
Compounds without any hit were thinned out: in the full panel of roughly 79,000, 15% have a hit. Calls of active or inactive are those of the source. No stated cut-off is given here; in the data, active means growth inhibition above about 70%; inactive means the rest.
Your answer must be one of the following: active, inactive

Worked set:
• [N-]=[N+]=Nc1c(-c2ccccc2)c(=O)n(-c2ccccc2)c2ccccc12 = inactive
• CC(C)SC(=S)Nc1ccc(Cl)c([N+](=O)[O-])c1 = inactive
• O=C(Oc1c(Cl)cc(Cl)c(Cl)c1Cl)Oc1c(Cl)cc(Cl)c(Cl)c1Cl = inactive
• CSC(=S)NN=C1CCCC1 = inactive
• CCN(CC)C(=S)n1c(=S)nc(N(CC)CC)sc1=S = active
• O=c1ncccn1[C@@H]1O[C@H](CO)[C@H](O)C1O (some centres not stated) = inactive

Now look at this entry.
Query: recorded result category for NC(=S)Nc1cccc(C(F)(F)F)c1 in this test
inactive
